Taken from paper PMC7822874.

tested on: Plasmodium falciparum Dd2 asexual blood stage parasites; test: microbe, parasite or virus in culture; set-up: species or system Plasmodium falciparum Dd2 in human erythrocytes; single determination (one 11-point concentration-response curve); conditions: Plasmodium falciparum, DD2, Erythrocyte, 72 h; read-out: AC50
AC50 for assorted compounds
quantityKind: AC50 (µM)

[
  {
    "compound": "CN(CCNC(=O)c1cc2c(-c3ccccc3F)nn(C)c2s1)C1CCCCC1",
    "experimentalTarget": "Plasmodium falciparum Dd2 asexual blood stage parasites",
    "measurement": 5.96
  },
  {
    "compound": "COc1ccccc1C1c2[nH]c3ccccc3c2C[C@H]2C(=O)N(C3CCN(Cc4ccccc4)CC3)CC(=O)N12 (some centres unmarked)",
    "experimentalTarget": "Plasmodium falciparum Dd2 asexual blood stage parasites",
    "measurement": 2.11
  },
  {
    "compound": "COc1ccc(/C=N/Nc2nc(Nc3ccccc3)nc(N3CCCC3)n2)cc1[N+](=O)[O-]",
    "experimentalTarget": "Plasmodium falciparum Dd2 asexual blood stage parasites",
    "measurement": 6.68
  },
  {
    "compound": "Cc1ccc2oc(=O)n(CCOc3ccccc3C)c2c1",
    "experimentalTarget": "Plasmodium falciparum Dd2 asexual blood stage parasites",
    "measurement": 4.73
  },
  {
    "compound": "Cc1ccc(NC(=O)c2cc(C(=O)c3cc(Cl)ccc3O)cn(-c3ccc(C)cc3)c2=O)cc1",
    "experimentalTarget": "Plasmodium falciparum Dd2 asexual blood stage parasites",
    "measurement": 0.422
  },
  {
    "compound": "Cc1ccc(-n2ncc3c(NCc4ccco4)ncnc32)cc1C",
    "experimentalTarget": "Plasmodium falciparum Dd2 asexual blood stage parasites",
    "measurement": 15
  },
  {
    "compound": "COc1ccc(CCNC(=O)Cn2c(-c3cccs3)cc3cc(F)ccc32)cc1OC",
    "experimentalTarget": "Plasmodium falciparum Dd2 asexual blood stage parasites",
    "measurement": 4.73
  },
  {
    "compound": "COc1cc2c(cc1OCc1ccccc1)NC(=O)C21CCN(c2ccccn2)CC1",
    "experimentalTarget": "Plasmodium falciparum Dd2 asexual blood stage parasites",
    "measurement": 15.3
  },
  {
    "compound": "Cc1cccc2cc(CN(Cc3ccco3)C(c3nnnn3CCc3ccccc3)C(C)C)c(O)nc12 (centres unmarked)",
    "experimentalTarget": "Plasmodium falciparum Dd2 asexual blood stage parasites",
    "measurement": 10.6
  },
  {
    "compound": "COc1cc(NC(=O)c2cc([N+](=O)[O-])ccc2NC(=O)CNC2CCCCC2C)cc(OC)c1 (centres unmarked)",
    "experimentalTarget": "Plasmodium falciparum Dd2 asexual blood stage parasites",
    "measurement": 5.96
  },
  {
    "compound": "CCOC(=O)C1(Cc2cccc(Cl)c2)CCCNC1 (centres unmarked)",
    "experimentalTarget": "Plasmodium falciparum Dd2 asexual blood stage parasites",
    "measurement": 8.41
  },
  {
    "compound": "CN(Cc1ccccc1)Cc1cc(C[C@@H]2CC[C@H](O)[C@@H](CNCc3ccccc3)O2)no1",
    "experimentalTarget": "Plasmodium falciparum Dd2 asexual blood stage parasites",
    "measurement": 4.73
  },
  {
    "compound": "O=c1c([N+](=O)[O-])cccn1Cc1ccc(F)cc1Cl",
    "experimentalTarget": "Plasmodium falciparum Dd2 asexual blood stage parasites",
    "measurement": 4.73
  },
  {
    "compound": "COc1ccc(C2c3[nH]c4ccccc4c3C[C@H]3C(=O)N(C4CCN(Cc5ccccc5)CC4)CC(=O)N23)c(OC)c1 (some centres unmarked)",
    "experimentalTarget": "Plasmodium falciparum Dd2 asexual blood stage parasites",
    "measurement": 2.37
  },
  {
    "compound": "Cc1ccccc1N(C(=O)c1snc(C(N)=O)c1N)C(C(=O)NCC1CCCO1)c1ccc(N(C)C)cc1 (centres unmarked)",
    "experimentalTarget": "Plasmodium falciparum Dd2 asexual blood stage parasites",
    "measurement": 7.5
  },
  {
    "compound": "O=C1C=CC(Br)=CC1=CNNC(=O)c1ccncc1",
    "experimentalTarget": "Plasmodium falciparum Dd2 asexual blood stage parasites",
    "measurement": 9.44
  },
  {
    "compound": "CC(C)Oc1ccc(C(CCNCc2ccc(O)cc2)c2ccccc2)cc1 (centres unmarked)",
    "experimentalTarget": "Plasmodium falciparum Dd2 asexual blood stage parasites",
    "measurement": 0.668
  }
]

----------
viability at 3 µM for assorted molecules
assay: in vitro; settings: human, hepg2-a16-cd81egfp cells, % viability

[
  {
    "molecule": "Cc1ccc(-c2cc(C(F)(F)F)n3ncc(C(=O)N4CCCCC4c4cccnc4)c3n2)cc1 (stereo not shown)",
    "viability at 3 µM": "89.9%"
  },
  {
    "molecule": "CCN(CC)CCOC(=O)c1ccc(N/C=C(/C#N)c2nc(-c3cc4ccccc4oc3=O)cs2)cc1",
    "viability at 3 µM": "105%"
  },
  {
    "molecule": "Cc1ccc(-c2c(C(=O)N/N=C/c3cccc(Cl)c3)nnn2-c2nonc2N)cc1",
    "viability at 3 µM": "92.2%"
  },
  {
    "molecule": "Oc1c(C(Nc2nccs2)c2ccc(C(F)(F)F)cc2)ccc2cccnc12 (stereo not shown)",
    "viability at 3 µM": "43.8%"
  }
]

----------
assay: in vitro; conditions: human, hepg2 cells
Doc: threshold 30 µM (exclusive). Items with CC50 at 48 h beneath it return rule met; others return rule not met.

[
  {
    "compound": "CN1CCC(Nc2ncc3ncnc(Nc4ccc(F)c(Cl)c4)c3n2)CC1.Cl.Cl [NCGC00161422-01]",
    "groupLabel": "rule met"
  },
  {
    "compound": "CCc1ccc(Nc2cc(=O)n(C3CCCCC3)c(=O)[nH]2)cc1 [MLS000094379-01]",
    "groupLabel": "rule not met"
  },
  {
    "compound": "CCOc1ccc(NS(=O)(=O)c2csc(C(N)=O)c2)cc1 [MLS001199948-01]",
    "groupLabel": "rule met"
  },
  {
    "compound": "Cc1noc(C)c1Cc1ccc(C(=O)N2[C@H]3CC[C@@H]2c2cnc(-c4ccccc4)nc2C3)o1 [NCGC00458744-01]",
    "groupLabel": "rule met"
  },
  {
    "compound": "CC(Sc1nc2ccccc2c(=O)n1C)C(=O)Nc1ccc2c(c1)OCCO2 (centres unmarked) [MLS002161477-01]",
    "groupLabel": "rule not met"
  },
  {
    "compound": "c1ccc(-c2nc(N3CCCCCC3)c3ccccc3n2)nc1 [MLS000042263-01]",
    "groupLabel": "rule met"
  },
  {
    "compound": "COc1cc(OC)c(NC2=CC(=O)C(=O)c3ccccc32)cc1Cl [MLS001198657-01]",
    "groupLabel": "rule not met"
  },
  {
    "compound": "FC(F)(F)c1cnc(N2CCCN(C(S)=Nc3ccccc3)CC2)c(Cl)c1 [MLS000833545-01]",
    "groupLabel": "rule not met"
  },
  {
    "compound": "CCN1CCN(c2cc(C)c3cc(NC(=O)c4cccc(Cl)c4)ccc3n2)CC1 [NCGC00103820-01]",
    "groupLabel": "rule not met"
  },
  {
    "compound": "CCOc1ccccc1NC(=O)Nc1ccc2nc(N3CCN(C)CC3)cc(C)c2c1 [NCGC00126491-01]",
    "groupLabel": "rule not met"
  },
  {
    "compound": "O=C(C[C@@H]1CCNC[C@@H]1Cc1cc(CC2CCCCC2)on1)NCc1ccccc1 [NCGC00400728-01]",
    "groupLabel": "rule not met"
  },
  {
    "compound": "CN1C2CCC1/C(=C/c1ccccn1)C(=O)/C2=C\\c1ccccn1 [MLS000702810-01]",
    "groupLabel": "rule met"
  },
  {
    "compound": "CCCCNc1cc(C)nc(NCc2ccccc2)n1 [MLS000078573-01]",
    "groupLabel": "rule not met"
  },
  {
    "compound": "CCCC1=Nc2cc(C(=O)NCCCN3CCCCC3CC)ccc2Sc2ccc(C)cc21 (centres unmarked) [NCGC00424661-01]",
    "groupLabel": "rule not met"
  },
  {
    "compound": "CCN1CCN(Cc2ccc(NC(=O)c3ccc(C)c(NC(=O)c4cnc5cc(C(F)(F)F)ccc5c4O)c3)cc2C(F)(F)F)CC1 [MLS000911561-01]",
    "groupLabel": "rule not met"
  },
  {
    "compound": "Cc1ccc(Oc2c(C)[nH]c(-c3ccccc3)nc2=O)cc1 [MLS000851017-01]",
    "groupLabel": "rule not met"
  },
  {
    "compound": "Cc1cc(NC2CCCCC2)nc(NCc2ccccc2)n1 [MLS000555549-01]",
    "groupLabel": "rule not met"
  }
]
